# Method summary: Binding affinity to Salmonella enterica Threonyl-tRNA synthetase at 200 uM by isothermal titration calorimetry
Measured parameter: pKd
Give bare numbers, as −log10 of the molar value.

## Task So what's the measured pKd for this one? CN[C@H](C(=O)NC/C=C/Cn1cnc2cc(Cl)c(Cl)cc2c1=O)[C@@H](C)O
## Result 6.40

###

# System: Salmonella enterica
# Method summary: Inhibition of Salmonella enterica Threonyl-tRNA synthetase assessed as reduction in aminoacylation activity at 100 uM using L-threonine as substrate incubated for 3 hrs by Kinase-glo luminescence assay relative to control
For each record, write down the corresponding inhibition.
One number for each entry, in %.

| Compound | Study target | Measured parameter | Result number |
| --- | --- | --- | --- |
| O=C1CC[C@@H](C(=O)NC/C=C/Cn2cnc3cc(Cl)c(Cl)cc3c2=O)N1 | Salmonella enterica | inhibition | 5 |
| O=C1CC[C@H](C(=O)NC/C=C/Cn2cnc3cc(Cl)c(Cl)cc3c2=O)N1 | Salmonella enterica | inhibition | 0 |
| CCO[C@H](C)[C@H](N)C(=O)NC/C=C/Cn1cnc2cc(Cl)c(Cl)cc2c1=O | Salmonella enterica | inhibition | 4 |
| C=CCN[C@H](C(=O)NC/C=C/Cn1cnc2cc(Cl)c(Cl)cc2c1=O)[C@@H](C)O | Salmonella enterica | inhibition | 100 |

Parameter requested: inhibition. Apply to each item below.
1. CN[C@H](C(=O)NC/C=C/Cn1cnc2cc(Cl)c(Cl)cc2c1=O)[C@@H](C)O
2. C[C@@H](O)[C@H](NCC#N)C(=O)NC/C=C/Cn1cnc2cc(Cl)c(Cl)cc2c1=O

## Result
100
93
